Quick list: z-score per entry.
# assay_procedure: basal 3T3-L1 adipocyte mitochondrial potential changes, profiling panel, cell-based, JC-1 fluorescence, 3T3-L1 adipocytes, 24 h, 100 nL compound (AID 1168); also: test concentration not given here
# experimental_conditions: JC-1 mitochondrial fluorescence, higher = more signal, called active from +8 up or from −8 down
Active and inactive are the calls of the source.

Some solved cases for reference:
{"compound": "Cc1ccc(N2C(=O)c3ccccc3[C@](C)(C(=O)O)[C@@H]2c2ccc(CO)cc2)nc1", "z-score": "0.23 (inactive)"}
{"compound": "CC(=O)NCCCC[C@@H]1NC(=O)[C@@H]2C[C@H](C(=O)NCc3ccc(F)cc3)[C@H](c3cccc(OCCO)c3)N2C1=O", "z-score": "-0.568 (inactive)"}
{"compound": "O=C(NCC(F)(F)F)[C@@H]1c2ccccc2C(=O)N(Cc2ccccc2Cl)[C@H]1c1ccc(CO)cc1", "z-score": "-0.198 (inactive)"}

Let us examine a further case.
**Query** So what does the record say about z-score for COC(=O)Cn1c(C(=O)N2CCCC2)cc2c1C[C@H]1CN(C(=O)c3ccccc3)[C@@](Cc3ccccc3)(C(=O)OC)[C@@H]21 ?
**Result** 0.385 (inactive)

###

# tested_target: Carbonic anhydrase 2 (Homo sapiens) (UniProt P00918)
# assay_procedure: CAII small-molecule binders, profiling panel, biochemical, small-molecule microarray, Alexa647-labelled CAII (AID 1122)
# experimental_conditions: CAII-A647 binding fluorescence, higher = more signal
Quick list: composite z-score per entry.
Give a plain numeric answer without units written out.

Some solved cases for reference:
{"compound": "CCOC(=O)C[C@H]1[C@H](OC(=O)c2ccccc2-c2ccccc2)[C@@H](NC(=O)C2CCCCC2)c2cc(OCCCO)ccc2N1C(=O)c1ccccc1", "composite z-score": 0.393}
{"compound": "C=CCC(OC(C)=O)[C@@H]1[C@@H](N(Cc2cccc3ccccc23)C(=O)c2ccc(C)cc2)c2cc(OCCCO)ccc2N1C(=O)c1ccc(-c2ccccc2)cc1 (some centres not stated)", "composite z-score": 0.507}

**Query** So what does the record say about composite z-score for CC(=O)NCCCC[C@@H]1NC(=O)[C@H]2C[C@@H](C(=O)NCCCCCCN(C)C)[C@@H](c3ccc(O)cc3)N2C1=O ?
**Result** 0.365

**Query** So what does the record say about composite z-score for O=C1O[C@H](c2ccccc2)[C@H](c2ccccc2)N2[C@H]1[C@@H](C(=O)Nc1nc3ccccc3s1)[C@]1(C(=O)Nc3ccc(C#CC4=CCCCC4)cc31)[C@H]2c1ccccc1OCCO ?
**Result** 0.23

**Query** So what does the record say about composite z-score for CCCNC(=O)[C@@H]1c2ccccc2C(=O)N(Cc2cc(F)cc(C(F)(F)F)c2)[C@H]1c1ccc(CO)cc1 ?
**Result** 0.584

**Query** So what does the record say about composite z-score for C[C@H]1COC(=O)[C@@H]2CCCN2C(=O)[C@@H](C)COC(=O)[C@@H]2CCCN2C1=O ?
**Result** -0.525

**Query** So what does the record say about composite z-score for C=CCN1C(=O)[C@]2(O[C@H](CCn3cc(CCO)nn3)[C@@H]([Si](C)(C)c3ccc(OC)cc3)[C@@H]2C)c2cc(NC(=O)c3ccc(OC)cc3)ccc21 ?
**Result** 0.131

###

# System: Sonic hedgehog protein (Shh)
# assay_procedure: small-molecule binders of Shh protein, primary screen, biochemical, small-molecule microarray, 635/667 nm fluorescence (AID 1151);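 also: Shh protein binding to compounds spotted on small-molecule microarray slides; score combines spot fluorescence intensity with signal-to-noise across triplicate slides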
# experimental_conditions: small-molecule microarray binding, 635 nm fluorescence; higher = more signal
endpoint: composite z-score
Give a plain numeric answer without units written out.

Some solved cases for reference:
{"compound": "CCC1=C2CN(Cc3ccccc3Br)[C@@H]([C@@H](O)Cc3ccccc3)C2C=CCC1 (some centres undefined)", "composite z-score": 0.675}
{"compound": "Cc1ccc(S(=O)(=O)c2cc3oc2CC[C@@H](CO)NC(=O)N(C)Cc2cn(nn2)C[C@H](Cc2ccccc2)NC3=O)cc1", "composite z-score": 0.0007}

**Query** So what does the record say about composite z-score for O=C(O)[C@@H]1Cc2c([nH]c3ccccc23)[C@@H](c2ccccc2)N1 ?
**Result** 0.371

**Query** So what does the record say about composite z-score for C[C@@H]1CC[C@H]2C(=O)N3CCC[C@H]3C(=O)N2[C@H]1c1ccc(Br)cc1 ?
**Result** -0.0312

**Query** So what does the record say about composite z-score for CCOC(=O)C1=CC[C@@H](c2ccccc2)N(S(=O)(=O)c2ccc(C)cc2)[C@H]1C ?
**Result** 0.747

**Query** So what does the record say about composite z-score for COCC(=C=CC[C@H](O)c1ccc(OCCO)cc1)C[C@H](O)c1ccccn1 ?
**Result** 1.05

**Query** So what does the record say about composite z-score for C=CC[C@]1(C(=O)OC)N=C(c2ccc(OCCCO)cc2)O[C@H]1c1ccccc1CN=[N+]=[N-] ?
**Result** 0.0034

**Query** So what does the record say about composite z-score for CC(C)[Si]1(C(C)C)O[C@@H](c2ccccc2)c2cc(C3CC3)nc(-c3ccc(Oc4ccccc4)cc3)c21 ?
**Result** -0.239

**Query** So what does the record say about composite z-score for O=C1OCCC=C[C@H]2OC34C=CCN(Cc5ccccc5)C(=O)[C@H]3N(CCO)C(=O)[C@@H]4C12 (some centres undefined) ?
**Result** -0.127

###

# assay_procedure: E. coli acrAB mutant growth effects, primary screen, E. coli filamentation inducers, strain DRC39, OD650, 24 h (AID 1178);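 also: growth measured as culture turbidity by optical density at 650 nm; test concentration not given here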
# experimental_conditions: higher = more signal, called active from +8 up or from −8 down
endpoint: z-score
Give a plain numeric answer without units written out.

{"compound": "CC(C)(C)OC(=O)CC[C@]1(C(=O)NCCN2CCOCC2)N=C(c2ccc(OCCCO)cc2)O[C@H]1c1ccccc1CN=[N+]=[N-]", "result": 1.16}
{"compound": "COc1cc(Cc2cc3c(c(CCc4ccccc4)n2)[Si](C(C)C)(C(C)C)OC3)cc(OC)c1OC", "result": -0.171}

Let us examine a further case.
**Query** So what does the record say about z-score for COCCOC(=O)N1C(=O)[C@@]2(c3cc(C#CCCO)ccc31)[C@H](C(=O)N1CCCCCCC1)[C@H]1C(=O)O[C@H](c3ccccc3)[C@H](c3ccccc3)N1[C@@H]2c1ccc(O)cc1 ?
**Result** 0.561

###

# assay_procedure: small-molecule binders of probe aNOTCH2, primary screen, biochemical, small-molecule microarray, 635/667 nm fluorescence (AID 1121);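 also: score merges feature fluorescence read at 667 nm with its signal to noise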
# experimental_conditions: higher = more signal
# label = Met if composite z-score >= -0.09 else Not met

Reference set, count: 3
{"compound": "COc1ccc(CCNC(=O)[C@@]2(c3ccc([N+](=O)[O-])cc3)CC(=O)N(C(C)C)[C@@H]2c2ccc(CO)cc2)cc1", "label_value": "Not met"}
{"compound": "COc1ccc(-c2ccccc2[C@@H]2N[C@H](C(=O)O)CC[C@H]2C)cc1", "label_value": "Not met"}
{"compound": "C=CC[C@]1(C(=O)N2CCCCC2)N=C(c2ccc(OCCCO)cc2)O[C@H]1c1ccccc1N=[N+]=[N-]", "label_value": "Met"}

**Query** Can CO[C@H]1COC(=O)CC=C[C@@H](C)COC(=O)[C@@H](C)NC(=O)CC=C[C@@H]1C be said to have composite z-score at or above -0.09?
**Result** Not met

###

Quick list: composite z-score per entry.
# System: Sonic hedgehog protein (Shh)
# assay_procedure: small-molecule binders of Shh protein, primary screen, biochemical, small-molecule microarray, 635/667 nm fluorescence (AID 1151);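 also: Shh protein binding to compounds spotted on small-molecule microarray slides; score combines spot fluorescence intensity with signal-to-noise across triplicate slides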
# experimental_conditions: small-molecule microarray binding, 635 nm fluorescence; higher = more signal
Give a plain numeric answer without units written out.

Some solved cases for reference:
{"compound": "COCCOC(=O)N1C(=O)[C@@]2(c3cc(C#CCC(C(=O)OC)C(=O)OC)ccc31)[C@H](c1ccccc1OCCO)N1[C@H](c3ccccc3)[C@H](c3ccccc3)OC(=O)[C@H]1[C@@H]2C(=O)N1CCCCCCC1", "composite z-score": 1.66}
{"compound": "COC(=O)C[C@H]1O[C@]2(C(=O)N(Cc3ccccc3)c3ccc(I)cc32)[C@@H](C)[C@@H]1[Si](C)(C)c1ccc(OC)cc1", "composite z-score": -0.657}

Let us examine a further case.
**Query** So what does the record say about composite z-score for C=CC[C@]1(C(=O)N2CCCCC2)N=C(c2ccc(OCCCO)cc2)O[C@H]1c1ccccc1N=[N+]=[N-] ?
**Result** 0.377

###

Quick list: z-score per entry.
# assay_procedure: basal 3T3-L1 adipocyte mitochondrial potential changes, profiling panel, cell-based, JC-1 fluorescence, 3T3-L1 adipocytes, 24 h, 100 nL compound (AID 1168); also: test concentration not given here
# experimental_conditions: JC-1 mitochondrial fluorescence, higher = more signal, called active from +8 up or from −8 down
Give a plain numeric answer without units written out.

{"compound": "CCCC=C(CCC)[C@@H](NC(=O)c1ccccc1)c1ccccc1", "result": 0.177}
{"compound": "C[C@@H]1C=CCC(=O)OC[C@H]2O[C@@H](C=C[C@@H]2O)[C@H](C)C=CCC(=O)OC[C@H]2O[C@H]1C=C[C@@H]2O", "result": 0.902}
{"compound": "C[C@]1(C(=O)NCCN2CCOCC2)c2ccccc2C(=O)N(Cc2ccccc2)[C@H]1c1ccc(CO)cc1", "result": -0.782}
{"compound": "CC[C@@H]1C=C(C(=O)O)[C@H](c2ccccc2)N1S(=O)(=O)c1ccc([N+](=O)[O-])cc1", "result": -0.375}
{"compound": "C=CCc1cccc([C@H]2N[C@H](C(=O)O)CC[C@@H]2C)c1", "result": -0.0728}
{"compound": "C/C(=N\\O)C(=O)NCCCCCNC(=O)OCc1ccccc1", "result": 0.334}
{"compound": "CC(C)[Si](OCC[C@H]1O[C@]2(C(=O)N(Cc3ccccc3)c3ccccc32)[C@@H](C)[C@@H]1[Si](C)(C)O)(C(C)C)C(C)C", "result": 0.578}

Let us examine a further case.
**Query** So what does the record say about z-score for COc1ccc([Si](C)(C)[C@@H]2[C@@H](CC(=O)N(CCO)Cc3ccccc3)O[C@]3(C(=O)N(Cc4cccc(N5CCC5=O)c4)c4ccccc43)[C@H]2C)cc1 ?
**Result** -0.0485
